Catalogue of Inhibitory rate on pro-proliferative effect of IL-4 values
# STUDY_SYSTEM: T1, IL-4Rα on TF-1 cells (human, UniProt P24394 26-825)
# T1 sequence (looked up): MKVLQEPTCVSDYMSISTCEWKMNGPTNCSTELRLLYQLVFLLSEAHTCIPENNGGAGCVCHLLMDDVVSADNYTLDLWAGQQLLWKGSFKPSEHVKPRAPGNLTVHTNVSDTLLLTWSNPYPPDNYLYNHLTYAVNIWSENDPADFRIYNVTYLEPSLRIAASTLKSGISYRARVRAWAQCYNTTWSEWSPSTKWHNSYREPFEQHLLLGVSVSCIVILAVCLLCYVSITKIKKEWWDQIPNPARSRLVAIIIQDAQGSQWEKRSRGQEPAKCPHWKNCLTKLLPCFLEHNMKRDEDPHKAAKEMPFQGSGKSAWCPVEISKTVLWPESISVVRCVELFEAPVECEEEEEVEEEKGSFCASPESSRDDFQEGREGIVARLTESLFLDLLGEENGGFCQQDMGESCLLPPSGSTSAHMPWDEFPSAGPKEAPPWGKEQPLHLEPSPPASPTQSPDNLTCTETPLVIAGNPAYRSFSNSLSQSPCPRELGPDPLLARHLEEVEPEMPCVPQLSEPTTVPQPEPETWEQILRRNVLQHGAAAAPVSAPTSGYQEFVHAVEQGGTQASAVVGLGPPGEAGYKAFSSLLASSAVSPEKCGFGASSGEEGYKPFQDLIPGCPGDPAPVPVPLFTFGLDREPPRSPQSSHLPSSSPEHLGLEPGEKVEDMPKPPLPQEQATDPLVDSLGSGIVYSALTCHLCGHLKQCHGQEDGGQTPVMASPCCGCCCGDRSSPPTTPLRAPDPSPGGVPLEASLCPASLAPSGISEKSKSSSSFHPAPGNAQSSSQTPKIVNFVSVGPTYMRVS
# MEASUREMENT_PROTOCOL: cell-based or functional assay
MEASURE: Inhibitory rate on pro-proliferative effect of IL-4

binder="L1023H1000 (antibody, V domains shown) VH: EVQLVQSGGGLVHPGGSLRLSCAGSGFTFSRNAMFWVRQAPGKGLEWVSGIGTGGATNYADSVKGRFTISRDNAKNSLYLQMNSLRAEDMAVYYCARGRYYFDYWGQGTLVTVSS VL: EIVLTQSPGTLSLSPGERATLSCRASQSVSSSYLAWYQQKPGQAPRLLIYGASSRAPGIPDRFSGSGSGTDFTLTISRLEPEDFAVYYCQQYDHSAGWTFGQGTKVEIK" observed_value=0.26
binder="L1024H1007 (antibody, V domains shown, human kappa) VH: EVQLVQSGGGLVHPGGSLRLSCAGSGFTFSRNAMFWVRQAPGKGLEWVSGIGTGGATSYADSVKGRFTISRDNAKNSLYLQMNSLRAEDMAVYYCARGRYYFDYWGQGTLVTVSS VL: EIVLTQSPGTLSLSPGERATLSCRASQSVSNSYLAWYQQKPGQAPRLLIFGASSRAPGIPDRFSGSGSGTDFTLTISRLEPEDFAVYYCQQYDHSAGWTFGQGTKVEIK" observed_value=0.86
binder="L1024H1000 (antibody, V domains shown, human kappa) VH: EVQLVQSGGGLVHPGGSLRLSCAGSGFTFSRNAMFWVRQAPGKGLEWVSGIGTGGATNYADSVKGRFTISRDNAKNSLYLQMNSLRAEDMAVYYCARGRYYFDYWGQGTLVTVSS VL: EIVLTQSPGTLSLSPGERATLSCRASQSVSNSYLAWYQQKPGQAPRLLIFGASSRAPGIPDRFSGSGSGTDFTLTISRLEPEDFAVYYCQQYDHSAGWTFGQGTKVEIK" observed_value=0.44
binder="L1019H1000 (antibody, V domains shown, human kappa) VH: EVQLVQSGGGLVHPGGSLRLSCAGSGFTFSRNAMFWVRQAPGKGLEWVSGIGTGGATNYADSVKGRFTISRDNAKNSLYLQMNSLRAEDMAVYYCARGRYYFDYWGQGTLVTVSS VL: EIVLTQSPGTLSLSPGERATLSCRASQSVSNSYLAWYQQKPGQAPRLLIFGASSRATGIPDRFSGSGSGTDFTLTISRLEPEDFAVYYCQQYDHSAGWTFGQGTKVEIK" observed_value=0.72
binder="L1022H1000 (antibody, V domains shown, human kappa) VH: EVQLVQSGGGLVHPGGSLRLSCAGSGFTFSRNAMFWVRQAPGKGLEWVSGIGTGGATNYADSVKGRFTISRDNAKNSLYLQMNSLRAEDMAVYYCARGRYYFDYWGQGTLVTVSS VL: EIVLTQSPGTLSLSPGERATLSCRASQSVSNSYLAWYQQKPGQAPRLLIYGASSRATGIPDRFSGSGSGTDFTLTISRLEPEDFAVYYCQQYDHSAGWTFGQGTKVEIK" observed_value=-0.05
